Source of measurements: patent US20180111913A1

Give measured IC50 for each item. Keep answers brief.
TARGET: Mtb Pks13-TE domain (wild-type) (Mycobacterium tuberculosis)
ASSAY SUMMARY: biochemical
Type: biochemical
EXPERIMENTAL CONDITIONS: Pks13 enzyme inhibition; read-out: Pks13 IC50
Give bare numbers, in nM.

Please state, for each entry, its recorded IC50.
1. CCOC(=O)c1c(-c2ccccc2)oc2cc(N)c(O)c(CN3CCCCC3)c12
2. Oc1ccc2[nH]c(-c3ccccc3)nc2c1CN1CCCCC1
3. CCOC(=O)c1c(-c2ccc(OC)cc2)oc2ccc(O)c(CN3CCCCC3)c12

Data returned:
1: 370; 2: 6800; 3: 290

Please state, for each entry, its recorded IC50.
1. O=C(c1c(-c2ccccc2)oc2ccc(O)c(CN3CCCCC3)c12)N1CCCCC1
2. CNC(=O)c1c(-c2ccc(O)nc2)oc2cc(O)cc(CN3CCCCC3)c12
3. CNC(=O)c1c(-c2ccc(OC)cc2)oc2ccc(O)c(CN3CCCCC3)c12
4. O=C(c1c(-c2ccccc2)oc2ccc(O)c(CN3CCCCC3)c12)N1CCNCC1

Data returned:
1: 320; 2: 2800; 3: 260; 4: 740

Please state, for each entry, its recorded IC50.
1. CNC(=O)c1c(-c2ccccc2)oc2cc(O)cc(CN3CCCCC3)c12
2. CCOC(=O)c1c(-c2ccccc2)oc2ccc(O)c(CN3CCCCC3)c12
3. CCOC(=O)c1c(-c2ccc(O)cc2)oc2cc(O)cc(CN3CCCCC3)c12
4. CCOC(=O)c1c(-c2ccccc2)oc2cc(O)cc(CN3CCC(C#N)CC3)c12
5. CCOC(=O)c1c(-c2ccccc2)oc2ccc(O)c(CCN3CCCC3)c12
6. CNC(=O)c1c(-c2ccc(F)cc2)oc2ccc(O)c(CN3CCCCC3)c12
7. CCOC(=O)c1c(-c2ccccc2)oc2cc(N)cc(CN3CCCCC3)c12
8. COC(=O)c1c(-c2ccccc2)oc2cc(O)cc(CNC(C)C)c12

Data returned:
[600, 260, 440, 1600, 700, 300, 4500, 700]

Data request: Look at this compound and give its reported IC50. `CNC(=O)c1c(-c2ccccc2)oc2ccc(O)c(CN3CCCCC3)c12`
Data returned: 290

* * *

TARGET: Mtb Pks13-TE domain (wild-type) (Mycobacterium tuberculosis)
ASSAY SUMMARY: biochemical
Assay type: biochemical
EXPERIMENTAL CONDITIONS: Pks13-TE, 20 μM 4-MUH; read-out: IC50
ENDPOINT: IC50 (µM)
Give bare numbers, in µM.

- SAMPLE SMILES: "CCOC(=O)c1c(-c2ccccc2)oc2ccc(O)c(CN(C)C)c12"
  UNIT LABEL: "µM"
  IC50: 1.57
- SAMPLE SMILES: "CCOC(=O)c1c(-c2ccccc2)oc2ccc(O)c(CCN3CCOCC3)c12"
  UNIT LABEL: "µM"
  IC50: 5.8

Then there is this compound:
Data request: # value lookup — system Mtb Pks13-TE domain (wild-type) (Mycobacterium tuberculosis), readout IC50, item `CNC(=O)c1c(-c2ccccc2)oc2ccc(O)c(CCN[C@H](C)Cc3cnc[nH]3)c12`
Data returned: 4

* * *

TARGET: Mtb Pks13-TE domain (wild-type) (Mycobacterium tuberculosis)
ASSAY SUMMARY: biochemical
Format: biochemical
EXPERIMENTAL CONDITIONS: Pks13-TE, 20 μM 4-MUH; read-out: IC50
Give measured pIC50 for each item. Keep answers brief.
One number for each entry, as −log10 of the molar value.

As a guide, the following entries are already answered.
- COMPOUND: "CCOC(=O)c1c(-c2ccccc2)oc2ccc(O)c(CCCN3CCCC3CCO)c12 (centres unmarked)"
  TARGET: "Mtb Pks13-TE domain (wild-type) (Mycobacterium tuberculosis)"
  pIC50: 5.37
- COMPOUND: "CNC(=O)c1c(-c2ccc(OC)cc2)oc2ccc(O)c(CN3CCCCC3)c12"
  TARGET: "Mtb Pks13-TE domain (wild-type) (Mycobacterium tuberculosis)"
  pIC50: 6.59
- COMPOUND: "CCOC(=O)c1c(-c2ccc(F)cc2)oc2cc(O)cc(CCNC(C)C)c12"
  TARGET: "Mtb Pks13-TE domain (wild-type) (Mycobacterium tuberculosis)"
  pIC50: 5.68
- COMPOUND: "CCOC(=O)c1c(-c2cccc(O)c2)oc2ccc(O)c(CN3CCCCC3)c12"
  TARGET: "Mtb Pks13-TE domain (wild-type) (Mycobacterium tuberculosis)"
  pIC50: 6.64
- COMPOUND: "CCOC(=O)CCCC1CCN(CCCc2c(O)ccc3oc(-c4ccccc4)c(C(=O)OCC)c23)C1 (centres unmarked) [compound 161]"
  TARGET: "Mtb Pks13-TE domain (wild-type) (Mycobacterium tuberculosis)"
  pIC50: 6.10

Please state, for each entry, its recorded pIC50.
1. Cc1nc2c(CN3CCCC3)c(O)ccc2[nH]1
2. CNC(=O)c1c(-c2ccccc2)oc2cc(OCCN)cc(CN3CCCCC3)c12
3. CCOC(=O)c1c(-c2ccccc2)oc2ccc(O)c(CCN3CCC(CCCCO)C3)c12 (centres unmarked)

Data returned:
1. 5.00
2. 5.00
3. 5.70

Please state, for each entry, its recorded pIC50.
1. CNC(=O)c1c(-c2ccccc2)oc2ccc(O)c(CCCN3CCC4(CC3)CC(=O)C4)c12
2. O=C(c1c(-c2ccccc2)oc2ccc(O)c(CN3CCCCC3)c12)N1CCNCC1
3. CC(C)(C)OC(=O)NC1CCN(C(=O)c2c(-c3ccccc3)oc3ccc(O)c(CN4CCCCC4)c23)CC1
4. CCOC(=O)c1c(-c2ccccc2)oc2ccc(O)c(CCCN3CC[C@H]3CO)c12
5. CNC(=O)c1c(-c2ccccc2)oc2ccc(O)c(CCNC3CCCCC3)c12
6. CNC(=O)c1c(-c2ccc(O)cc2)oc2ccc(O)c(CCCN3CCC3)c12

Data returned:
5.00
6.36
6.20
5.64
5.00
5.80

* * *

TARGET: Mtb Pks13-TE domain (wild-type) (Mycobacterium tuberculosis, UniProt I6X8D2)
Sequence (I6X8D2 1451-1733): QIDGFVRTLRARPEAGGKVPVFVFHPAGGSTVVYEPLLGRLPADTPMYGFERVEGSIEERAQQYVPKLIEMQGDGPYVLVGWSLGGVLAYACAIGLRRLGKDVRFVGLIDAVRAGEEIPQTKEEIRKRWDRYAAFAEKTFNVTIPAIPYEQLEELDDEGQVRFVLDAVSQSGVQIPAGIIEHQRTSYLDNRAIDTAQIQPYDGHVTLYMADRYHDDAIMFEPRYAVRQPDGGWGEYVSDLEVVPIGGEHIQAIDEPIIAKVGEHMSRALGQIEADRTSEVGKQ
ASSAY SUMMARY: biochemical
Type: biochemical
EXPERIMENTAL CONDITIONS: Pks13-TE, 20 μM 4-MUH; read-out: IC50
ENDPOINT: log10 of IC50 (log10 of the value in µM)
Heads up: the numbers are on a log10 scale; they represent IC50 in µM.

As a guide, the following entries are already answered.
- COMPOUND: "CC[C@H](CO)NCCc1c(O)ccc2oc(-c3ccccc3)c(C(=O)NC)c12"
  log10 of IC50: 0.72
- COMPOUND: "CCOC(=O)c1c(-c2ccccc2)oc2ccc(O)c(CCN3CC4COCC4C3)c12 (centres unmarked)"
  log10 of IC50: 1.00
- COMPOUND: "CNC(=O)c1c(-c2ccccc2)oc2ccc(O)c(CCN3CCC(CO)(CBr)C3)c12 (centres unmarked)"
  log10 of IC50: 0.40
- COMPOUND: "CNC(=O)c1c(-c2ccc(F)cc2)oc2ccc(O)c(CN3CCCCC3)c12"
  log10 of IC50: -0.52

Please state, for each entry, its recorded log10 of IC50.
1. CNC(=O)c1c(-c2ccccc2)oc2ccc(O)c(CCN[C@@H](Cc3cnc[nH]3)C(=O)OC)c12
2. CCOC(=O)c1c(-c2ccccc2)oc2ccc(O)c(CCCN3CC[C@@H](O)C3)c12
3. CCOC(=O)c1c(-c2ccccc2)oc2ccc(O)c(CN3CCC(F)(F)CC3)c12
4. CNC(=O)c1c(-c2ccc(O)cc2)oc2ccc(O)c(CN3CCC(O)CC3)c12
5. CC(C)(C)OC(=O)N1CCN(C(=O)c2c(-c3ccccc3)oc3ccc(O)c(CN4CCCCC4)c23)CC1
6. CNC(=O)c1c(-c2ccccc2)oc2ccc(O)c(CCNC3CCC3)c12

Data returned:
1. 0.38
2. -0.02
3. -0.10
4. -0.30
5. -0.18
6. 0.54

* * *

Test system: Mtb strain mc^27000
ASSAY SUMMARY: microbe, parasite or virus in culture
Type: cell-based, Mycobacterium tuberculosis
EXPERIMENTAL CONDITIONS: Mycobacterium tuberculosis; at 20 μM; read-out: percentage inhibition observed (incomplete inhibition)
ENDPOINT: inhibition at 20 µM

Please state, for each entry, its recorded inhibition at 20 µM.
1. COC(=O)n1c(-c2ccccc2)c(Br)c2cccc(CN3CCCCC3)c21 [compound 108]
2. CCOC(=O)c1c(-c2ccccc2)oc2ccc(O)c(CN3CCC(N4CCCCC4)CC3)c12 [compound 98]
3. OCc1c(-c2ccccc2)oc2ccc(O)c(CN3CCC(N4CCCCC4)CC3)c12 [compound 99]
4. O=S(=O)(Nc1ccc2oc(-c3ccccc3)cc2c1CN1CCC(N2CCCCC2)CC1)C(F)(F)F [compound 100]
5. CNC(=O)c1c(-c2ccccc2)oc2cc(OCC(N)=O)cc(CN3CCCCC3)c12 [compound 90]

Data returned:
1: 26%; 2: 40%; 3: 28%; 4: 6%; 5: 13%
